- Assay Summary: modulators of HCV replicon luciferase signal, primary screen, HCV replication inhibitor project, Huh7 cells, luciferase reporter (AID 1109);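 also: huh7 hepatoma cells harbouring a luciferase neomycin HCV replicon reporter; luciferase luminescence as measure of HCV replicon replication; test concentration not given here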
- Condition Description: 48 h, higher = more signal
Please mark true if the recorded z-score is equal to or greater than -0.5, and false if it falls below.

Record excerpt, results attached:
{"Molecule": "CC(CCN1CCc2nc(-c3ccccc3)c(-c3ccccc3)cc2C1)=NOC[C@@H](C)[C@H](OCc1ccccc1)C(C)C", "Class Label": "false"}
{"Molecule": "CCOC(=O)NN=C1C[C@@H](O)[C@@H](O)[C@@H]2[C@@H]3C(=O)N(C[C@@H]4CCCO4)C(=O)[C@@H]3CC[C@@H]12", "Class Label": "true"}
{"Molecule": "C#CCCCON=C1C[C@@H](O)[C@@H](O)[C@@H]2[C@@H]3C(=O)N(CCC(=O)OCC)C(=O)[C@@H]3CC[C@@H]12", "Class Label": "false"}
{"Molecule": "COC(=O)[C@@]1(Cc2ccc(OC)cc2)[C@H]2c3cc(C(=O)N4CCCC4)n(Cc4cc(F)c(F)c(F)c4)c3C[C@H]2CN1C(=O)c1ccccc1", "Class Label": "true"}
{"Molecule": "CC(CCN1CCc2nc(-c3ccccc3)c(-c3ccccc3)cc2C1)=NOC(C)CN1CCCCc2nc(C)c(C)cc21 (centres undefined)", "Class Label": "false"}

Determine whether this molecule has z-score no lower than -0.5: "O=C1O[C@@H](c2ccccc2)[C@@H](c2ccccc2)N2[C@@H](c3ccccc3OCCO)[C@]3(C(=O)Nc4ccc(C#CCCO)cc43)[C@@H](C(=O)O)[C@H]12"
false

Record CN1C(=O)C2C(C1=O)C1C=C(CCCO)C2C(c2ccc(CN3CCCC3)cc2)N1C (centres undefined) ; criterion: z-score no lower than -0.5. Met?
true

Record "CC(=O)OC[C@H]1O[C@H](C#CCCCc2ccccc2)C=C[C@@H]1OC(C)=O" ; criterion: z-score no lower than -0.5. Met?
false

For this molecule, is measured z-score -0.5 or higher? COC(=O)[C@H](C)NC(=O)CCC1CC(OC(=O)NCCc2ccc(F)cc2)CC2(CCCC(COC(=O)NCC(c3ccccc3)c3ccccc3)O2)O1 (some centres undefined)
true

Would you say "C[C@@H](c1ccccc1)N1C(=O)[C@H]2[C@H]3[C@H](O)[C@H](O)CC(=NOC[C@@H](O)COCc4ccco4)[C@@H]3CC[C@H]2C1=O" shows z-score at minimum -0.5?
true

Confirm if z-score reported for the molecule "COCCCNC(=O)[C@@]1(C)c2ccccc2C(=O)N(Cc2ccc(OC(F)(F)F)cc2)[C@H]1c1ccc(CO)cc1" is -0.5 or above.
true

Reported z-score reaches at least -0.5 for "O=C1[C@H]2[C@H]3[C@H](O)[C@H](O)CC(=NO[C@@H]4O[C@H](CO)[C@@H](O)[C@H](O)[C@H]4O)[C@H]3CC[C@H]2C(=O)N1C1CCCCC1" ?
true

Dear colleague, could you confirm whether "C=CC[C@@H]1C=C[C@H](ON=C2c3cc(OC)ccc3O[C@H](c3cccc(OC)c3)[C@H]2O)[C@@H](CO)O1" has z-score at or above -0.5?
false

Could you verify whether the entry "COc1ccc(O[C@H]2C=C[C@@H](c3ccccc3)O[C@@H]2COC(=O)CCC(C)=NO[C@@H](C)c2cc(-c3c(C)cc(C)cc3C)no2)cc1" shows z-score of no less than -0.5?
false

Hello, I need to know if "COC(=O)[C@H]1COC(c2ccc(OCCCO)cc2)=N1" has measured z-score not below -0.5. Thanks!
true

Please check the record "Cc1cc(C)c(-c2cc([C@H](C)ON=C3[C@H]4CCn5c(=O)n(-c6ccccc6)c(=O)n5[C@H]4[C@H](O)[C@@H]4O[C@H]34)on2)c(C)c1" and state if its z-score is at or above -0.5.
false

Threshold query (z-score >= -0.5) on "Cc1ccc(S(=O)(=O)N[C@@H]2COC(=O)[C@H](C)COC(=O)CC=C[C@H]2C)cc1"
true

For this molecule, is measured z-score -0.5 or higher? COc1ccc(-c2ccc3c(n2)CCCN3CC(O)CN2CCCc3nc(C)c(C)cc32)cc1 (centres undefined)
false

Tell me whether z-score is at least -0.5 here: "O=C1[C@H]2[C@H]3[C@H](O)[C@H](O)CC(=NOCc4ccccc4)[C@H]3CC[C@H]2C(=O)N1c1cccc(Oc2ccccc2)c1"
true

Does the reported z-score for "COc1ccc([Si](C)(C)[C@H]2[C@H](CCO)O[C@@]3(C(=O)N(Cc4cccc(NC(=O)[C@H](C)O)c4)c4ccccc43)[C@@H]2C)cc1" fall at or above the -0.5 mark?
false

Answer whether z-score of "C#CCCCON=C1C[C@@H](O)[C@@H](O)[C@@H]2[C@@H]3C(=O)N(Cc4ccccc4)C(=O)[C@@H]3CC[C@H]12" is greater than or equal to -0.5.
false

----------
- Assay Summary: Plasmodium falciparum growth inhibition, primary screen, strain 3D7, DAPI fluorescence, 100 nL (AID 1184);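 also: parasites grown inside human red blood cells in medium with human serum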
- Condition Description: P. falciparum 3D7 growth, 3 d, higher = more signal
Measure: z-score

{"Compound": "COc1ccc(-c2ccc3c(n2)CCCN3CC(O)CN2CCCc3nc(C)c(C)cc32)cc1 (configuration not stated)", "z-score": 0.618}
{"Compound": "CC(C)(C)OC(=O)CC[C@]1(C(=O)NCc2ccccc2)N=C(c2ccc(OCCCO)cc2)O[C@H]1c1ccccc1", "z-score": -1.58}
{"Compound": "C[C@@H]1CC[C@H]2C(=O)O[C@H](COc3ccc(C(C)(C)C)cc3)CN2[C@H]1c1ccc(Br)cc1", "z-score": -0.407}
{"Compound": "CCc1cc2c(nc1CC)CCN(CCC(C)=NOC(C)CN1CCCc3nc(C)c(C)cc31)C2 (configuration not stated)", "z-score": 0.74}

Now examine the next entry.
Recorded z-score for "O=C1C[C@@H](O)[C@@H](O)[C@@H]2[C@@H]3C(=O)N(C4CCCCC4)C(=O)[C@@H]3CC[C@H]12" , please?
0.266

----------
- Test Target: Neurogenic locus notch homolog protein 2 (Homo sapiens) (UniProt Q04721)
- Sequence (Q04721 whole entry, looked up): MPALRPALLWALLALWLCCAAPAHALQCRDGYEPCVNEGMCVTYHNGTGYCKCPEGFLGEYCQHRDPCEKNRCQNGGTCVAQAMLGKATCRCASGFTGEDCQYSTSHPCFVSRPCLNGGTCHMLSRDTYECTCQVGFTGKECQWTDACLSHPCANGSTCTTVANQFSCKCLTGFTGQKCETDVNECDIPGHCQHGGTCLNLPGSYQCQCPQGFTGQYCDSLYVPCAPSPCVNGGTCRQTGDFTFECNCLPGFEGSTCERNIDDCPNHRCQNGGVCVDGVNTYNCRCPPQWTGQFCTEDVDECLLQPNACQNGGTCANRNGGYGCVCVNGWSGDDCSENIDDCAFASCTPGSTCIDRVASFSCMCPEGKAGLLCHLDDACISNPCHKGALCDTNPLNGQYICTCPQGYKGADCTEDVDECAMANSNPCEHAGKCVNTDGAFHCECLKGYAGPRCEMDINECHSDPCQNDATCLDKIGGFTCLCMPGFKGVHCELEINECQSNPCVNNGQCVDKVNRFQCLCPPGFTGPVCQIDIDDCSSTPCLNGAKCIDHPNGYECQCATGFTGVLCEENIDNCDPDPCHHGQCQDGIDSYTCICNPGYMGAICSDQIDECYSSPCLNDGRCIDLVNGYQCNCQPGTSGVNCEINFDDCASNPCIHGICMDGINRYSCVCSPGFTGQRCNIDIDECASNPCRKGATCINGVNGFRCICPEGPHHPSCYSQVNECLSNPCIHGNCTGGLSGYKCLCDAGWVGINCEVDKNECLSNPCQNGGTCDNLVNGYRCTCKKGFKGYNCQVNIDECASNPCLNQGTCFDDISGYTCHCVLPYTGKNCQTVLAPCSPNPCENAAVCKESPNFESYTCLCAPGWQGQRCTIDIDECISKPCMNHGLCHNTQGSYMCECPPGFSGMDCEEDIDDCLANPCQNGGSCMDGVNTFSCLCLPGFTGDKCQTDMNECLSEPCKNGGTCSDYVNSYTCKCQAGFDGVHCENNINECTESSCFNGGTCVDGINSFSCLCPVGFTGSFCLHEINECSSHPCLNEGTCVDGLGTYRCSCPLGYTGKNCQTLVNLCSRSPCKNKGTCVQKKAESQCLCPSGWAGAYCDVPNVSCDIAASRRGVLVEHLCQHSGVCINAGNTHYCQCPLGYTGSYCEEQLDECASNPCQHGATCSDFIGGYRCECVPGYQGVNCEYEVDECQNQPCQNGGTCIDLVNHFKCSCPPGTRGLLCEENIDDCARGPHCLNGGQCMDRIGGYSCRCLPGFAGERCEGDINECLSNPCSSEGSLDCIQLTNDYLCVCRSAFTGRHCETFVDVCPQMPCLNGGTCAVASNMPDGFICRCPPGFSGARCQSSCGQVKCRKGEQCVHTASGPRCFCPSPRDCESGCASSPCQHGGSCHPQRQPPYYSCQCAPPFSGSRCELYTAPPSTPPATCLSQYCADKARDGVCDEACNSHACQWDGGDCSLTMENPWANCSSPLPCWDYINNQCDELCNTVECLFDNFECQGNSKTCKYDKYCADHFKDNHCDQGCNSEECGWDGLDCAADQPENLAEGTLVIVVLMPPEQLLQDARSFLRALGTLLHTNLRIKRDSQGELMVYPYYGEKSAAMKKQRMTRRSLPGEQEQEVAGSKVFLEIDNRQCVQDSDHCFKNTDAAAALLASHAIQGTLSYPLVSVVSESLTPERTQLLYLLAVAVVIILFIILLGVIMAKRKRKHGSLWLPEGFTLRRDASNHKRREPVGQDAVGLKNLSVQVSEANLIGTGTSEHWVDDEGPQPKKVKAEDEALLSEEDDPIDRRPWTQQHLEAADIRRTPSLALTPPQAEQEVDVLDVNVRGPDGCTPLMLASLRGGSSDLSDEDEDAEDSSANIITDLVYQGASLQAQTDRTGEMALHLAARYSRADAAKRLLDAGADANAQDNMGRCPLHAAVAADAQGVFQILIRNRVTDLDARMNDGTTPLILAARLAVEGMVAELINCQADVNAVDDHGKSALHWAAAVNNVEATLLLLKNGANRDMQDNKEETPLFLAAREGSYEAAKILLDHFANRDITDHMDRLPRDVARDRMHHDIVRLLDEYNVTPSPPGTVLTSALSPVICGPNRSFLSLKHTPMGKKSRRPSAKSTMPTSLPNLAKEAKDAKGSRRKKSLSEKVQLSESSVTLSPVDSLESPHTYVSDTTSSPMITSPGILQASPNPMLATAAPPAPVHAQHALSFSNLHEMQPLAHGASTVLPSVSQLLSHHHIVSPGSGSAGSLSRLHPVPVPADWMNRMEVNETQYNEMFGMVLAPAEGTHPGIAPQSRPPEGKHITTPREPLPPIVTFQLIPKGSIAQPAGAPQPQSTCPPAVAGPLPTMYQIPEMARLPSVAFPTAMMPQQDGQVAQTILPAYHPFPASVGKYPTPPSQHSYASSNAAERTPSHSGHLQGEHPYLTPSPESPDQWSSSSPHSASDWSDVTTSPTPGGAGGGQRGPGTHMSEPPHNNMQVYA
- Assay Summary: Notch2 binders on small-molecule microarrays, primary screen, biochemical, small-molecule microarray, 635 nm fluorescence, stem cell growth factors (AID 1073)
- Condition Description: Notch2 binding, higher = more signal
Short version: composite z-score at least 0.7 is met, less is not met.

Solved entries (count: 3):
{"Molecule": "O=C1[C@H]2[C@H]3[C@H](O)[C@H](O)CC(=NOCc4ccccc4)[C@H]3CC[C@H]2C(=O)N1C[C@@H]1CCCO1", "Class Label": "not met"}
{"Molecule": "O=C1[C@H]2[C@H]3[C@H](O)[C@H](O)CC(=NOC[C@@H](O)COCc4ccco4)[C@H]3CC[C@H]2C(=O)N1c1cccc(Oc2ccccc2)c1", "Class Label": "not met"}
{"Molecule": "CCOC(=O)[C@H](Cc1ccccc1)NC(=O)CCC1CC(OC(=O)NCc2ccc3c(c2)OCO3)CC2(CCCC(COC(=O)NCc3ccccc3)O2)O1 (some centres not stated)", "Class Label": "met"}

Decide: composite z-score of "O=C(NN=C1C[C@@H](O)[C@@H](O)[C@@H]2[C@@H]3C(=O)N(c4cccc(Oc5ccccc5)c4)C(=O)[C@@H]3CC[C@H]12)OCc1ccccc1" >= 0.7?
not met

Reported composite z-score at or above 0.7? "O=C1[C@H]2[C@H]3[C@H](O)[C@H](O)CC(=NOCc4ccccc4)[C@H]3CC[C@H]2C(=O)N1c1cccc(Oc2ccccc2)c1"
not met

Is composite z-score at least 0.7? Consider COC(=O)[C@H](C)NC(=O)CCC1CC(OC(=O)NCCc2ccc(F)cc2)CC2(CCCC(COC(=O)NCC(c3ccccc3)c3ccccc3)O2)O1 (some centres not stated)
met

----------
- System: Chordin-like protein 2 (CHRDL2)
- Assay Summary: CHRDL2 small-molecule binders, primary screen, biochemical, small-molecule microarray, 635 nm fluorescence (AID 1126);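 also: printed compound slides probed with Chrdl2 protein at 4 µg/mL for 1 h at 4 C; score merges 667 nm emission intensity with signal to noise over three replicate slides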
- Condition Description: small-molecule microarray binding, fluorescence 635 nm; higher = more signal
Measure: composite z-score
Note: the reply should be a number with no unit written.

{"Molecule": "Cc1cc2c(nc1C)CCCN2CC(C)ON=C1[C@H]2CCn3c(=O)n(-c4ccccc4)c(=O)n3[C@H]2[C@H](O)[C@@H]2O[C@H]12 (stereo not given in full)", "composite z-score": 0.647}
{"Molecule": "Cc1ccc(S(=O)(=O)N[C@@H]2COC(=O)[C@H](C)COC(=O)CC=C[C@H]2C)cc1", "composite z-score": 1.23}
{"Molecule": "COc1ccc([Si](C)(C)[C@H]2[C@H](CC(=O)N3CCC[C@H]3CO)O[C@@]3(C(=O)N(Cc4cccc(N5C(=O)COc6ccccc65)c4)c4ccccc43)[C@@H]2C)cc1", "composite z-score": 0.959}
{"Molecule": "CCOC(=O)NN=C1C[C@@H](O)[C@@H](O)[C@@H]2[C@@H]3C(=O)N(C4CCCCC4)C(=O)[C@@H]3CC[C@H]12", "composite z-score": 0.0341}
{"Molecule": "COc1cccc([C@H]2Oc3ccc(OC)cc3C(=NOC(C)CN3CCCc4nc(C)c(C)cc43)[C@@H]2O)c1 (stereo not given in full)", "composite z-score": 0.414}
{"Molecule": "Cn1cccc1C(O)C1C=CC2C(=O)NC(=O)C2N1Nc1ccccn1 (stereo not given)", "composite z-score": 0.148}
{"Molecule": "[N-]=[N+]=NCc1ccccc1C[C@]1(C(=O)NCc2ccccc2)N=C(c2ccc(OCCCO)cc2)O[C@H]1c1ccccc1N=[N+]=[N-]", "composite z-score": -0.38}
{"Molecule": "CC(=O)OC[C@H]1O[C@H](CCON=C(C)CCN2CCc3nc(-c4ccccc4)c(-c4ccccc4)cc3C2)C=C[C@@H]1OC(C)=O", "composite z-score": -0.0682}

Sample N#Cc1ccc(NN2C(C(O)c3cccc4ccccc34)C=CC3C(=O)N(c4ccccc4)C(=O)C32)cc1 (stereo not given) — what was its composite z-score?
-0.0989

If you can, please state the reported composite z-score value of "COCCCNC(=O)[C@@]1(C)c2ccccc2C(=O)N(Cc2ccc(OC(F)(F)F)cc2)[C@H]1c1ccc(CO)cc1" .
-0.654

Can you share its composite z-score? I mean this molecule: "O=C1C[C@@H](O)[C@@H](O)[C@@H]2[C@@H]3C(=O)N(c4ccc(F)cc4F)C(=O)[C@@H]3CC[C@@H]12"
0.65

Entry "CC(C)=CCCC(C)=CCON=C1[C@H]2CCn3c(=O)n(C)c(=O)n3[C@H]2[C@H](O)[C@@H]2O[C@H]12" has what composite z-score?
0.916

Would you mind telling me what composite z-score value was observed for "O=C(CS)NCCCCCNC(=O)[C@H]1C[C@H]2C(=O)N3CCC[C@H]3C(=O)N2[C@H]1c1cccc(OCCO)c1" ?
1.4

Reported composite z-score, molecule "O=C1[C@H]2[C@H]3[C@H](O)[C@H](O)CC(=NOC[C@@H](O)COCc4ccco4)[C@@H]3CC[C@H]2C(=O)N1c1ccc(F)cc1F" : ____
1.38

Would you mind telling me what composite z-score value was observed for "CO[C@@H]1COC(=O)CC=C[C@@H](C)[C@@H]2C=C[C@H](O)[C@@H](COC(=O)CCC[C@H]1C)O2" ?
1.3
